# target_system: T1, biotinylated CD47 IgSF domain (human CD47 residues 19-135 / residues 1-117, C15G) (human, UniProt Q08722 19-135, biotinylated with BirA ligase at the C-terminal biotin acceptor peptide tag)
# T1 construct: range 19-135; Captured on a Biacore SA chip for SPR; C15G is counted on the mature domain (1-117), not on the precursor; also called immobilized CD47
# T1 sequence (Q08722 other isoform, or with tags, fused parts or gaps C15G C15G limits assumed): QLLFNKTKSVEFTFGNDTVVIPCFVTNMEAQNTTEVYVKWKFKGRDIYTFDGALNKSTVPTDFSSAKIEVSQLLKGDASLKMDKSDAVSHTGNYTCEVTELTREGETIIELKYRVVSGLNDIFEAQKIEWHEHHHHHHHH
# assay: SPR (Biacore T100, 25 C), biotinylated CD47 captured on SA chip, SIRPα variant in solution, 1:1 Langmuir model
Task for the reader: assign each of the following binders its reported pKd.
One number for each entry, as −log10 of the molar value.

Field: example entries. Status: answers known.
>>> obs_value("FB3 (designed binder, also called FB3 mutant d1 domain) SIRPα d1 domain variant: EEELQIIQPDKSVSVAAGESAILHCTITSLFPVGPIQWFRGAGPARLLIYNQRQGPFPRVTTVSETTKRENMDFSISISNITPADAGTYYCVKFRKGSPDTEFKSGAGTELSVRAKPS")
10.16
>>> obs_value("first generation SIRPα mutant 1A5 monomer (designed binder) EEEVQVIQPDKSVSVAAGESAILHCTLTSLIPVGPIQWFRGAGPARVLIYNQRQGHFPRVTTVSEGTRRENMDFSISISNITPADAGTYYCIKFRKGSPDTEFKSGAGTELSVRAKPSHHHHHHHH")
8.44

Next binder, pKd to be filled in.
Per the records, this binder ( 2A2 (designed binder, also called 2A2 mutant d1 domain) SIRPα d1 domain variant: EEEVQIIQPDKSVSVAAGESIILHCTVTSLFPVGPIQWFRGAGPARVLIYNQREGRFPRVTTVSEGTRRENMDFSISISNITPADAGTYYCIKLRKGSPDTEFKSGAGTELSVRAKPS ) has pKd equal to 9.40
